# Target Or Test System: Influenza virus A/Indonesia/5/2005/PR8-IBCDC-RG2 (H5N1) (Influenza A virus A/Indonesia/5/2005/PR8-IBCDC-RG2 (H5N1))
# Assay Summary: cell-based or functional assay
Measurement Label: Neutralizing activity (%) at 250 µg/ml
Please respond with the number in % and leave the unit unwritten.

Example binders with recorded Neutralizing activity (%) at 250 µg/ml:
Binder	Neutralizing activity (%) at 250 µg/ml
Group 39 representative clone F082-237, Fab-PP-type antibody (Fab, V domains shown) VH: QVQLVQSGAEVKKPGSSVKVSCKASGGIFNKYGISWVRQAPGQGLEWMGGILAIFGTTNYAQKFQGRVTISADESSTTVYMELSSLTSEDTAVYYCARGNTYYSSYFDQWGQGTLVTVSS VL: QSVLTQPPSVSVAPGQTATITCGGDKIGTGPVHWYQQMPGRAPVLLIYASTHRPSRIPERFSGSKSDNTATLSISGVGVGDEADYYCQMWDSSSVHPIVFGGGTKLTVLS	41.2
Group 52 representative clone F083-328, Fab-PP-type antibody (Fab, V domains shown) VH: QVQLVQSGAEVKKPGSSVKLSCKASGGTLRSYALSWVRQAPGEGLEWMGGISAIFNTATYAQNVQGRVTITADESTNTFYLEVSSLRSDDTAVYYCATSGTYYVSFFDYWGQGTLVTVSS VL: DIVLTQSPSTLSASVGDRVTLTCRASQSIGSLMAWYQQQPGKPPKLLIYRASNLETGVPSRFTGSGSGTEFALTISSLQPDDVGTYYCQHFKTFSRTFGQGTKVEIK	93.2
Group 58 representative clone F083-307, Fab-PP-type antibody (Fab, V domains shown) VH: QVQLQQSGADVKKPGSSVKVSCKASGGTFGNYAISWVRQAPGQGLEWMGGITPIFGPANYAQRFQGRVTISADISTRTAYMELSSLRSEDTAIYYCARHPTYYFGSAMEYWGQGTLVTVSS VL: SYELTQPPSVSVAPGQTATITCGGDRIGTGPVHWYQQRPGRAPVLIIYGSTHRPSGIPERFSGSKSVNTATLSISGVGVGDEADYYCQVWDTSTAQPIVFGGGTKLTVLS	31.8

QUERY: Supply recorded Neutralizing activity (%) at 250 µg/ml for Group 47 representative clone F083-308, Fab-PP-type antibody (Fab, V domains shown) VH: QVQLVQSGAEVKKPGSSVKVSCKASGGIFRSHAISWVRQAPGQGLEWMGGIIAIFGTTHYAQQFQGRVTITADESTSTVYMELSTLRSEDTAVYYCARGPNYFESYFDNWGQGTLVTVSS VL: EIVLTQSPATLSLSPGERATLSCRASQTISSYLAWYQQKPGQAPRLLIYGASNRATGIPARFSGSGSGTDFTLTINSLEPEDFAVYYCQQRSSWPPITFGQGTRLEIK here.
RESULT: 49.4

QUERY: Supply recorded Neutralizing activity (%) at 250 µg/ml for Group 43 representative clone F081-007, Fab-PP-type antibody (Fab, V domains shown) VH: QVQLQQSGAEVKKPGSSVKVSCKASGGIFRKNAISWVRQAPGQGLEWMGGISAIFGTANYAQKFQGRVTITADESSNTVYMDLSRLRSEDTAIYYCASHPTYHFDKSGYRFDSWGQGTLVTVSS VL: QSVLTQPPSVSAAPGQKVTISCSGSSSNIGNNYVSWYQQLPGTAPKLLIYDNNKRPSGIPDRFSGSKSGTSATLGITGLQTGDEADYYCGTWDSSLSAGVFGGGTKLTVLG here.
RESULT: 98.8

QUERY: Supply recorded Neutralizing activity (%) at 250 µg/ml for Group 1 representative clone F080-227, Fab-PP-type antibody (Fab, V domains shown) VH: QVQLQESGAEVKKPGSSVKVSCKASGGIFRRNAISWVRQAPGQGLEWMGGIIAIFGTANYAQKFQGRVTITADESTSTVYMELSSLRPEDTAVYYCARGPNYYENFFDYWGQGTLVTVSS VL: DIVMTQSPSSLSASVGDRLDLTCRASQDIANSLAWYKQRPGKAPELLVFGASRLEGGVPSRFSGTRAGTDFTLTISSLQPEDLGTYFCQQYFSFPRTFGQGTTLDLR here.
RESULT: 52.9

QUERY: Supply recorded Neutralizing activity (%) at 250 µg/ml for Group 63 representative clone F083-336, Fab-PP-type antibody (Fab, V domains shown) VH: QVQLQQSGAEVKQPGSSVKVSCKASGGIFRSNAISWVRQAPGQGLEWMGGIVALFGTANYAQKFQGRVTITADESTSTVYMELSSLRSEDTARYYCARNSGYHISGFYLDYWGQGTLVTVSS VL: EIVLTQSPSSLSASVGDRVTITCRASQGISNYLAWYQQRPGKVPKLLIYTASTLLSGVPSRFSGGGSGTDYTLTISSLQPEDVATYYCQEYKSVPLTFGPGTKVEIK here.
RESULT: 100

QUERY: Supply recorded Neutralizing activity (%) at 250 µg/ml for Group 37 representative clone F083-311, Fab-PP-type antibody (Fab, V domains shown) VH: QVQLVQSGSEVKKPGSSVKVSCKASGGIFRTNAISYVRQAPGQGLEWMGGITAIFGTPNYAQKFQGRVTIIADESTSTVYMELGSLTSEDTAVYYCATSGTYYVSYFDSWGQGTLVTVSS VL: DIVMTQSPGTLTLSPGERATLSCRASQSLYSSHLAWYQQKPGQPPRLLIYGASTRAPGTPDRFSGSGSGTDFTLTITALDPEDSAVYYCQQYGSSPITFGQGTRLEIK here.
RESULT: 97.1

QUERY: Supply recorded Neutralizing activity (%) at 250 µg/ml for Group 48 representative clone F083-389, Fab-PP-type antibody (Fab, V domains shown) VH: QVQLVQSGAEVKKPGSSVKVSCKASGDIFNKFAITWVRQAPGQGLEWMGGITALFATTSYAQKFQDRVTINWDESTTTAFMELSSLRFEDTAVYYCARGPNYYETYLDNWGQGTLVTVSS VL: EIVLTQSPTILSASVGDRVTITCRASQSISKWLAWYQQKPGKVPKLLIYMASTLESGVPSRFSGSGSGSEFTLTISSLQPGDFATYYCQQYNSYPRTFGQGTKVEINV here.
RESULT: 60.8

QUERY: Supply recorded Neutralizing activity (%) at 250 µg/ml for Group 57 representative clone F083-103, Fab-PP-type antibody (Fab, V domains shown) VH: QVQLQQSGADVKKAGSSVKVSCKASGRTFGNYAISWVRQAPGQGLEWMGGITPIFGAANYAQKFQGRVTISADLSTRMVYMDLSSLRSDDTAFYYCAGHPTYHYGSAMDYWGQGTLVTVSS VL: QSVLTQPPSVSAAPGQKVTITCSGSSSNIGNNYVSWYQQLPGTAPKLLISEGSNRPSGIPDRFSGSKSGTSATLGITGLQTGDEATYYCATWDDSLSVVLFGGGTRLTVLS here.
RESULT: 61.2
